# PROTOCOL NOTES: Stability of LaKe in plasma, rat
# Format: in vitro ADME
# CONDITIONS USED: rat plasma (fresh)
MEASURED QUANTITY: half-life at 2 µM

Q) GET /values?readout=half-life at 2 µM&item= CC(O)CCOC(=O)C(C)O (stereo not shown) [LaKe, 3-hydroxybutyl 2-hydroxypropanoate]
A) < 30 min

----------
# PROTOCOL NOTES: Stability of LaKe in plasma, human
# Format: in vitro ADME
# CONDITIONS USED: thawed); human plasma (frozen)
MEASURED QUANTITY: half-life at 2 µM

Q) GET /values?readout=half-life at 2 µM&item= CC(O)CCOC(=O)C(C)O (stereo not shown) [LaKe, 3-hydroxybutyl 2-hydroxypropanoate]
A) < 30 min

----------
# PROTOCOL NOTES: In vitro stability in simulated intestinal fluid
# Type: in vitro ADME
# CONDITIONS USED: simulated intestinal fluid (SIF) with pancreatin, intestinal enzymes (pancreatin), pH = 6.8
MEASURED QUANTITY: half-life at 0.1 mg/ml

Q) GET /values?readout=half-life at 0.1 mg/ml&item= CC(O)CCOC(=O)C(C)O (stereo not shown) [LaKe, 3-hydroxybutyl 2-hydroxypropanoate]
A) < 2 h
